# METHOD NOTES: pharmacokinetic study, single i.p. dose, plasma by LC/MS/MS
# Assay type: in vivo, CD-1 mice
# CONDITION: male, CD-1, plasma, ip; 15 mg/kg i.p., individual mouse; read-out: T ½ (converted)
PROPERTY LABEL: half-life (h)
Lab book: enter the figure in h, no units written.

The recorded half-life for "CN1CC(=Cc2ccccn2)C(=O)C(=Cc2ccccn2)C1" is 1.97

---

# METHOD NOTES: pharmacokinetic study, single i.p. dose, plasma by LC/MS/MS
# Type: in vivo, CD-1 mice
# CONDITION: male, CD-1, plasma, ip; 15 mg/kg i.p., individual mouse
PROPERTY LABEL: AUC(0-inf) (ng·h/mL)
Lab book: enter the figure in ng·h/mL, no units written.

The recorded AUC(0-inf) for "CN1CC(=Cc2ccccn2)C(=O)C(=Cc2ccccn2)C1" is 124
